- TESTED_TARGET: Recombinant human KIF18A (1-467 His-tagged) (Homo sapiens, UniProt Q8NI77)
- Construct: Recombinant human KIF18A (1-467 His-tagged) protein; His
- Sequence (Q8NI77 1-467): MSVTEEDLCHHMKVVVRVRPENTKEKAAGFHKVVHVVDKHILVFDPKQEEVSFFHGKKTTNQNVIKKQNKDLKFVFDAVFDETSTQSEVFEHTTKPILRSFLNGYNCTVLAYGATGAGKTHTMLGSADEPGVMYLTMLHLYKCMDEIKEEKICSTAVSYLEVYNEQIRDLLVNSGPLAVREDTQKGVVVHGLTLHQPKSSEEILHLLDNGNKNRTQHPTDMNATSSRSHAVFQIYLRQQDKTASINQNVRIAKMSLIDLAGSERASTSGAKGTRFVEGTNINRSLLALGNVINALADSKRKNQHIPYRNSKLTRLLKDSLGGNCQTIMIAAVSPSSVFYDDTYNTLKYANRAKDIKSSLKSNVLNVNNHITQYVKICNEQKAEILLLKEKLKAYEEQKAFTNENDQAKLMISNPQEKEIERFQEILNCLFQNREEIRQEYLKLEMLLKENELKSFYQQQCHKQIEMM
- Sequence (P02550 whole entry partner): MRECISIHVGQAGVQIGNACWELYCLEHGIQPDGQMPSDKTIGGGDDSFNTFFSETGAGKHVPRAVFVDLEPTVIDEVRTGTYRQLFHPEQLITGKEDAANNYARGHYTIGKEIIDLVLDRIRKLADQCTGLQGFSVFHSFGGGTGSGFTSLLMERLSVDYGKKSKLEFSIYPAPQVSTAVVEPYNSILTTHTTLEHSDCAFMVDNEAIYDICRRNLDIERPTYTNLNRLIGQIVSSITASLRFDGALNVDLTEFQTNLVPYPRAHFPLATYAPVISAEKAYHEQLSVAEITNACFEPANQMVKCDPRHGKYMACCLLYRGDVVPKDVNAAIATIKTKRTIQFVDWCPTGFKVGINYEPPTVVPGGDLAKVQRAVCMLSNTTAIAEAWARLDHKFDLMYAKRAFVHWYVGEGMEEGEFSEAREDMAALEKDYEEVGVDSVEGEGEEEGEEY
- Sequence (P02554 whole entry partner): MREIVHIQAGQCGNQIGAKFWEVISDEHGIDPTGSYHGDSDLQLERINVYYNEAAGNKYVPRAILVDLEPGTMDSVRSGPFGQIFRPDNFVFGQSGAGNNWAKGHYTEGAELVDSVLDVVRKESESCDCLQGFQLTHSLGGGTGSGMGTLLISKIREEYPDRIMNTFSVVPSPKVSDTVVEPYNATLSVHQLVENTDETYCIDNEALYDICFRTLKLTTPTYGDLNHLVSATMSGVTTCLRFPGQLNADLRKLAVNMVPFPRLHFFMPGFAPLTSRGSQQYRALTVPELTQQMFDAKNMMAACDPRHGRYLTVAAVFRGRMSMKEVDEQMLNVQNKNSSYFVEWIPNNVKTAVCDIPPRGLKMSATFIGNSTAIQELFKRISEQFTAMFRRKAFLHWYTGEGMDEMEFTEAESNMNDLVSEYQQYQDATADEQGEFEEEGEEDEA
- PROCEDURE_SUMMARY: KIF18A Enzyme Assay: microtubule-stimulated ATPase activity (ADP-Glo)
- CONDITION_CONTEXT: 30 nM KIF18A, 30 μg/mL pig microtubules, ATP 75 μM (Km), ADP-Glo luminescence
# pIC50 per entry
On this scale, pIC50 is minus log10 of a concentration expressed in M (mol/L).

* Cc1cc(NC(=O)c2ccc(NS(=O)(=O)[C@H](C)CO)cc2N2CCC3(CC2)CC3)nc(N2CCC(F)(F)CC2)c1 (single isomer, unassigned) [Example 9-8] | 7.42
* Cc1cc(NC(=O)c2ccc(S(=O)(=O)NCCO)cc2N2CCC3(CC2)CC3)nc(N2CCC(F)(F)CC2)c1 [Example 1-2] | 7.49
* O=C(Nc1cccc(OCCC(F)(F)F)n1)c1ccc(S(=O)(=O)NCCO)cc1N1CCC2(CC1)CC2 [Example 1] | 7.92
* CC(C)(O)c1cccc(NC(=O)c2ccc(NS(=O)(=O)C3(C)CC3)cc2N2CCC3(CC2)CC3)n1 [Example 4-1] | 6.89
* C[C@@H]1CN(c2cccc(NC(=O)c3ccc(S(C)(=N)=O)cc3N3CCC4(CC3)CC4)n2)CCO1 (stereo in doubt) [Example 13-4] | 6.81
* Cc1cc(NC(=O)c2ccc(NS(=O)(=O)CCO)cc2N2CCC3(CC2)CC3)nc(N2CCO[C@H](C)C2)c1 [Example 7-18] | 7.13
* Cc1cc(NC(=O)c2ccc(NS(=O)(=O)C(C)(C)C)cc2N2CCC3(CC2)CC3)nc(N2CC(F)(F)C2)c1 [Example 7-29] | 6.87
* N=[S@@](=O)(c1ccc(C(=O)Nc2cccc(OCCC(F)(F)F)n2)c(N2CCC3(CC2)CC3)c1)C1CC1 (single isomer, unassigned) [Example 27-2] | 7.80

Exam item: Specify reported pIC50 for the molecule shown: Cc1cc(NC(=O)c2ccc(NS(=O)(=O)CCO)cc2N2CCC3(CC2)CC3)nc(OCCCC(F)(F)F)c1 [Example 17-3]
Marked response: 6.74

Exam item: Specify reported pIC50 for the molecule shown: CC(CO)NS(=O)(=O)c1ccc(C(=O)Nc2cccc(N3CCO[C@H](C)C3)n2)c(N2CCC3(CC2)CC3)c1 (stereo partly shown) [Example 1-5]
Marked response: 7.33

Exam item: Specify reported pIC50 for the molecule shown: Cc1cc(NC(=O)c2ccc(NS(=O)(=O)C3COC3)cc2N2CCC3(CC2)CC3)nc(N2CCC(F)(F)CC2)c1 [Example 7-11]
Marked response: 7.09

Exam item: Specify reported pIC50 for the molecule shown: Cc1cc(NC(=O)c2ccc(NS(=O)(=O)CCO)cc2N2CCC3(CC2)CC3)nc(N2CCC(F)(F)CC2)c1 [Example 6]
Marked response: 7.33

Exam item: Specify reported pIC50 for the molecule shown: C[C@@H]1CN(c2cccc(NC(=O)c3ccc(NS(=O)(=O)C4(CO)CC4)cc3N3CCC4(CC3)CC4)n2)CCO1 [Example 10-1]
Marked response: 7.24

###

- TESTED_TARGET: Recombinant human KIF18A (1-467 His-tagged) (Homo sapiens, UniProt Q8NI77)
- Construct: Recombinant human KIF18A (1-467 His-tagged) protein; His
- PROCEDURE_SUMMARY: KIF18A Enzyme Assay: microtubule-stimulated ATPase activity (ADP-Glo)
- Type: biochemical
- CONDITION_CONTEXT: 30 nM KIF18A, 30 μg/mL pig microtubules, ATP 75 μM (Km), ADP-Glo luminescence
ENDPOINT_NAME: IC50 (nM)
I only need the number, in nM, no unit after it.

Worked cases, answers included:
* CC1(S(=O)(=O)Nc2ccc(C(=O)Nc3cccc(N4CCCCC4)n3)c(N3CCC4(CC3)CC4)c2)CC1 | 34
* O=C(Nc1cccc(N2CCC(F)(F)CC2)n1)c1ccc(NS(=O)(=O)CCO)cc1N1CCC2(CC1)CC2 | 23
* C[C@@H]1CN(c2cccc(NC(=O)c3ccc(NS(=O)(=O)CC(F)(F)F)cc3N3CCC4(CC3)CC4)n2)CCO1 | 135

Please find the next compound below.
Exam item: Specify reported IC50 for the compound shown: "Cc1cc(NC(=O)c2ccc(NS(=O)(=O)CC3CC3)cc2N2CCC3(CC2)CC3)nc(N2CC(F)(F)C2)c1"
Marked response: 59
